Where do the numbers come from? From paper PMC6556873.

TEST_DETAILS: in vitro
Parameters: species or system HB2, CCD841
ASSAY_CONDITIONS: human, hek293 cells
REPORTED_ENDPOINT: viability at 48 h, 10 µM
Respond with a number, then the unit of measure.

// fetch viability at 48 h, 10 µM given entry C=CC(=O)N1CCC(NC(=O)c2ccncc2)CC1
94.7%

Name the recorded viability at 48 h, 10 µM of the compound listed here: NS(=O)(=O)c1ccccc1NC(=O)CCl
69.7%

Retrieve viability at 48 h, 10 µM measured for C=CC(=O)N1CCC2(CCc3ccccc3O2)C1 (centres unmarked) and print it.
103%

Look up viability at 48 h, 10 µM of C=CC(=O)NCc1nnc(C(C)(C)C)s1 and report it.
100%
